- System: HCI-011.E2 (organoid from an ER-positive breast cancer xenograft)
- assay: CTG-3D luminescence at 96 h relative to day-0 seeding control (ratio to day 0); higher = more growth / less cytotoxicity; PDxO 3D drug screen, 96 h, CTG-3D normalised to day-0 seeding control.
- experimental-parameters: 0.005 µM
parameter: CTG-3D luminescence at 96 h

INSERT INTO results (structure_as_smiles, parameter, readout_value) VALUES
  ('CC(C)(C(=O)NCC(F)(F)C(F)(F)F)C(=O)N[C@@H]1C(=O)Nc2ccccc2-c2ccccc21', 'CTG-3D luminescence at 96 h', 1.49),
  ('C=CC(=O)N1CCC[C@@H](n2nc(-c3ccc(Oc4ccccc4)cc3)c3c(N)ncnc32)C1', 'CTG-3D luminescence at 96 h', 1.45),
  ('Cc1nc(-c2cn3c(n2)-c2ccc(-c4cnn(C(C)(C)C(N)=O)c4)cc2OCC3)n(C(C)C)n1', 'CTG-3D luminescence at 96 h', 1.07),
  ('CC(=O)O[C@H]1C(=O)[C@@]2(C)[C@H]([C@H](OC(=O)c3ccccc3)[C@]3(O)C[C@H](OC(=O)[C@H](O)[C@@H](NC(=O)c4ccccc4)c4ccccc4)C(C)=C1C3(C)C)[C@]1(OC(C)=O)CO[C@@H]1C[C@@H]2O', 'CTG-3D luminescence at 96 h', 1.09);

---

- System: HCI-001 (organoid from a triple-negative breast cancer xenograft)
- assay: CTG-3D luminescence at 96 h relative to day-0 seeding control (ratio to day 0); higher = more growth / less cytotoxicity; PDxO 3D drug screen, 96 h, CTG-3D normalised to day-0 seeding control.
- experimental-parameters: 0.1 µM; days in culture: 346
A collection of molecules and their measured CTG-3D luminescence at 96 h
parameter: CTG-3D luminescence at 96 h

INSERT INTO results (molecule, parameter, readout_value) VALUES
  ('Cc1nc(-c2cn3c(n2)-c2ccc(-c4cnn(C(C)(C)C(N)=O)c4)cc2OCC3)n(C(C)C)n1', 'CTG-3D luminescence at 96 h', 1.1),
  ('O=C(O)C1(C(=O)O)CCC1.[NH2-].[NH2-].[Pt+2]', 'CTG-3D luminescence at 96 h', 1.02),
  ('CNC(=O)c1cccc(-c2ccc3c(N4CCOC[C@@H]4C)nc(N4CCOC[C@@H]4C)nc3n2)c1', 'CTG-3D luminescence at 96 h', 0.926),
  ('C[C@@H]1COCCN1c1cc(C2([S@](C)(=N)=O)CC2)nc(-c2cc[nH]c3nccc2-3)n1', 'CTG-3D luminescence at 96 h', 1.3),
  ('CC(=O)O[C@H]1C(=O)[C@@]2(C)[C@H]([C@H](OC(=O)c3ccccc3)[C@]3(O)C[C@H](OC(=O)[C@H](O)[C@@H](NC(=O)c4ccccc4)c4ccccc4)C(C)=C1C3(C)C)[C@]1(OC(C)=O)CO[C@@H]1C[C@@H]2O', 'CTG-3D luminescence at 96 h', 0.568),
  ('C[C@]12CC[C@@H]3c4ccc(O)cc4C[C@@H](CCCCCCCCC[S+]([O-])CCCC(F)(F)C(F)(F)F)[C@H]3[C@@H]1CC[C@@H]2O (stereo partly specified)', 'CTG-3D luminescence at 96 h', 1.33);

---

- Tested on: HCI-010 (organoid from a breast cancer xenograft)
- assay: CTG-3D luminescence at 96 h relative to day-0 seeding control (ratio to day 0); higher = more growth / less cytotoxicity; PDxO 3D drug screen (set 2), 96 h, CTG-3D normalised to day-0 seeding control.
- experimental-parameters: 625 fM; days in culture: 79
parameter: CTG-3D luminescence at 96 h

INSERT INTO results (compound, parameter, readout_value) VALUES
  ('CS(=O)(=O)CCNCc1ccc(-c2ccc3ncnc(Nc4ccc(OCc5cccc(F)c5)c(Cl)c4)c3c2)o1', 'CTG-3D luminescence at 96 h', 2.06),
  ('CCOc1ccn(-c2ccc(F)cc2)c(=O)c1C(=O)Nc1ccc(Oc2ccnc(N)c2Cl)c(F)c1', 'CTG-3D luminescence at 96 h', 1.97),
  ('Cc1c(CN2CCN(C(=O)[C@H](C)O)CC2)sc2c(N3CCOCC3)nc(-c3cnc(N)nc3)nc12', 'CTG-3D luminescence at 96 h', 2.13),
  ('COc1cccc2c1C(=O)c1c(O)c3c(c(O)c1C2=O)C[C@@](O)(C(=O)CO)C[C@@H]3O[C@H]1C[C@H](N)[C@@H](O)[C@H](C)O1 [epirubicin]', 'CTG-3D luminescence at 96 h', 2.12);

---

- System: HCI-019 (organoid from a triple-negative breast cancer xenograft)
- assay: CTG-3D luminescence at 96 h relative to day-0 seeding control (ratio to day 0); higher = more growth / less cytotoxicity; PDxO 3D drug screen, 96 h, CTG-3D normalised to day-0 seeding control.
- experimental-parameters: 10 µM; days in culture: 152
Binary call on CTG-3D luminescence at 96 h: true from 2 upward, false beneath that.

INSERT INTO measurements (compound, study_target, label_value) VALUES
  ('CC[C@H](NC(=O)[C@H](C)NC)C(=O)N1C[C@@H](O)C[C@H]1Cc1c(-c2[nH]c3cc(F)ccc3c2C[C@@H]2C[C@H](O)CN2C(=O)[C@H](CC)NC(=O)[C@H](C)NC)[nH]c2cc(F)ccc12 [birinapant]', 'HCI-019', 'false'),
  ('C=CC(=O)N1CCC[C@@H](n2nc(-c3ccc(Oc4ccccc4)cc3)c3c(N)ncnc32)C1 [ibrutinib]', 'HCI-019', 'false'),
  ('CCN(c1cc(C#CCN2CCOCC2)cc(C(=O)NCc2c(C)cc(C)[nH]c2=O)c1C)[C@H]1CC[C@H](N(C)CCOC)CC1', 'HCI-019', 'false'),
  ('C[C@]12CC[C@@H]3c4ccc(O)cc4C[C@@H](CCCCCCCCC[S+]([O-])CCCC(F)(F)C(F)(F)F)[C@H]3[C@@H]1CC[C@@H]2O (some centres not stated) [fulvestrant]', 'HCI-019', 'true'),
  ('Cc1cc(Nc2ncnc3ccc(NC4=NC(C)(C)CO4)cc23)ccc1Oc1ccn2ncnc2c1 [tucatinib]', 'HCI-019', 'true'),
  ('NC(=O)c1cccc2cn(-c3ccc([C@@H]4CCCNC4)cc3)nc12 [niraparib]', 'HCI-019', 'false'),
  ('CC(=O)O[C@H]1C(=O)[C@@]2(C)[C@H]([C@H](OC(=O)c3ccccc3)[C@]3(O)C[C@H](OC(=O)[C@H](O)[C@@H](NC(=O)c4ccccc4)c4ccccc4)C(C)=C1C3(C)C)[C@]1(OC(C)=O)CO[C@@H]1C[C@@H]2O [paclitaxel]', 'HCI-019', 'false');

---

- Test system: HCI-024 (organoid from a breast cancer xenograft)
- assay: CTG-3D luminescence at 96 h relative to day-0 seeding control (ratio to day 0); higher = more growth / less cytotoxicity; PDxO 3D drug screen, 96 h, CTG-3D normalised to day-0 seeding control.
- experimental-parameters: 12.5 pM; days in culture: 105
The entries below come with measured CTG-3D luminescence at 96 h values attached.
parameter: CTG-3D luminescence at 96 h

INSERT INTO assay_data (compound, study_target, parameter, readout_value) VALUES
  ('C[C@H](NC(=O)CCC(F)(F)F)C(=O)N[C@@H]1C(=O)N(CCO)c2ncccc2-c2ccccc21 [crenigacestat]', 'HCI-024', 'CTG-3D luminescence at 96 h', 1.19),
  ('CNC(=O)c1cccc(-c2ccc3c(N4CCOC[C@@H]4C)nc(N4CCOC[C@@H]4C)nc3n2)c1 [vistusertib]', 'HCI-024', 'CTG-3D luminescence at 96 h', 1.75),
  ('NC1(C(=O)N[C@@H](CCO)c2ccc(Cl)cc2)CCN(c2nc[nH]c3nccc2-3)CC1 [capivasertib]', 'HCI-024', 'CTG-3D luminescence at 96 h', 1.73),
  ('CCN(c1cc(C#CCN2CCOCC2)cc(C(=O)NCc2c(C)cc(C)[nH]c2=O)c1C)[C@H]1CC[C@H](N(C)CCOC)CC1', 'HCI-024', 'CTG-3D luminescence at 96 h', 1.44),
  ('C=CC(=O)N1CCC[C@@H](n2nc(-c3ccc(Oc4ccccc4)cc3)c3c(N)ncnc32)C1 [ibrutinib]', 'HCI-024', 'CTG-3D luminescence at 96 h', 1.56),
  ('C/C=C1\NC(=O)[C@H]2CSSCC/C=C/[C@H](CC(=O)N[C@H](C(C)C)C(=O)N2)OC(=O)[C@H](C(C)C)NC1=O [romidepsin]', 'HCI-024', 'CTG-3D luminescence at 96 h', 1.55),
  ('NC(=O)Nc1cc(-c2cccc(F)c2)sc1C(=O)N[C@H]1CCCNC1 [AZD7762]', 'HCI-024', 'CTG-3D luminescence at 96 h', 1.28),
  ('O=C(c1ccc(F)c(F)c1Nc1ccc(I)cc1F)N1CC(O)([C@@H]2CCCCN2)C1 [cobimetinib]', 'HCI-024', 'CTG-3D luminescence at 96 h', 1.71);
